Protocol Notes: in vivo
Recorded Conditions: mouse, iv
Measured Quantity: LD50 at 24 h

The value of LD50 at 24 h measured for the molecule CCCCCCCCCCCC(=O)OC[n+]1ccn(C)c1 [IRx-1229] turned out to be 100 to 133 mg/kg

====

Tested on: S. aureus
Protocol Notes: microbe, parasite or virus in culture
Format: cell-based
Recorded Conditions: Staphylococcus aureus, pH 7, read-out: Minimal inhibitory concentration (MIC), S. aureus
MIC under 8 µg/mL gets YES, anything at or over 8 µg/mL gets NO.

[in] API: query returns whether the compound falls strictly under 8 µg/mL in MIC. Query: `CCCCCCCCCCCC(=O)OC[n+]1ccn(C)c1`
[out] YES

[in] API: query returns whether the compound falls strictly under 8 µg/mL in MIC. Query: `CCCCCCCCCCCCCCCC(=O)OC[n+]1ccn(C)c1`
[out] YES

[in] API: query returns whether the compound falls strictly under 8 µg/mL in MIC. Query: `CCCCCCCCCCCCCC(=O)OC[n+]1ccn(C)c1`
[out] YES

[in] API: query returns whether the compound falls strictly under 8 µg/mL in MIC. Query: CCCCCCCCCCCC(=O)OC[n+]1ccccc1 [Compound 3, n-Dodecanoyloxymethylpyridinium chloride]
[out] NO

[in] API: query returns whether the compound falls strictly under 8 µg/mL in MIC. Query: `CCCCCCCCCCCCCCCC(=O)OC[n+]1ccccc1`
[out] NO

[in] API: query returns whether the compound falls strictly under 8 µg/mL in MIC. Query: CCCCCCCC(=O)OC[n+]1ccccc1 [Compound 2, n-Octanoyloxymethylpyridinium chloride]
[out] NO
